Numbers sourced from patent US11078232B2.

Tested on: CT26 tumor cells
assay-text: CT26 immunotherapy model (Example 15)
Assay type: in vivo, mice
recorded-conditions: IV ⅓ MTD once a week, 6 weeks
Give measured Tumor inhibition rate % (Day 42) for each item. Keep answers brief.

Please review the following examples before continuing.
1) COc1cccc2c1C(=O)c1c(O)c3c(c(O)c1C2=O)C[C@](O)(C(=O)CO)CC3OC1C[C@H](NC(=O)OCc2ccc(NC(=O)C(CC(N)=O)NC(=O)C(C)NC(=O)C(C)NC(=O)[C@H](O)[C@H](O)[C@@H](O[C@@H]3O[C@H](CO)[C@H](O)[C@H](O)[C@H]3O)[C@H](O)CO)cc2)[C@H](O)[C@H](C)O1 (stereo partly drawn)    82.5%
2) C[C@H](N=C[C@H](O)[C@@H](O)[C@H](O)[C@H](O)CO)C(=O)N[C@@H](C)C(=O)N[C@@H](CC(N)=O)C(=O)Nc1ccc(COC(=O)N(C)CCNC(=O)c2cc(Oc3ccc(NC(=O)Nc4ccc(Cl)c(C(F)(F)F)c4)cc3)ccn2)cc1 [Compound C4, Glucose-AAN-PABC-Compound a, reference compound]    36.6%

// next item, Tumor inhibition rate % (Day 42) requested
Problem: Which Tumor inhibition rate % (Day 42) value belongs to CC(NC(=O)C(NC(=O)[C@H](O)[C@H](O)[C@@H](O[C@@H]1O[C@H](CO)[C@H](O)[C@H](O)[C@H]1O)[C@H](O)CO)C(C)C)C(=O)NC(CC(N)=O)C(=O)Nc1ccc(COC(=O)N(C)CCNC(=O)c2cc(Oc3ccc(NC(=O)Nc4ccc(Cl)c(C(F)(F)F)c4)cc3)ccn2)cc1 (stereo partly drawn) ?
Solution: 84.7%

###

assay-text: MTD (maximum tolerated dose) acute toxicity in mice
Format: in vivo, mouse
recorded-conditions: female, mouse, in vivo; BALB/C mice, intravenous, observed 17 days
Text: Test purpose: to investigate the acute toxicity of highly activated compounds by targeted site molecules of the invention by measuring the MTD (maximum tolerated dose) experiment in mice. The injections of each drug and the control drug were uniformly dissolved using water for injection, and diluted to the corresponding dose with physiological saline during the test. Methods and results: […] BALB/C mice, weighing 19-21 g, were randomly divided into 10 groups, with 10 mice in each group. […]
readout: MTD at 17 days
Value and unit, in that order.

Please review the following examples before continuing.
1. CC(NC(=O)C(C)NC(=O)[C@H](O)[C@H](O)[C@@H](O[C@@H]1O[C@H](CO)[C@H](O)[C@H](O)[C@H]1O)[C@H](O)CO)C(=O)NC(CC(N)=O)C(=O)Nc1ccc(COC(=O)Nc2nccc(-c3sc(C(C)(C)C)nc3-c3cccc(NS(=O)(=O)c4c(F)cccc4F)c3F)n2)cc1 (stereo partly drawn)    280 mg/kg
2. CC(NC(=O)C(C)NC(=O)[C@H](O)[C@H](O)[C@@H](O[C@@H]1O[C@H](CO)[C@H](O)[C@H](O)[C@H]1O)[C@H](O)CO)C(=O)NC(CC(N)=O)C(=O)Nc1ccc(COC(=O)Nc2c(-c3nc4ccc(N5CCN(C)CC5)cc4[nH]3)c(=O)[nH]c3cccc(F)c23)cc1 (stereo partly drawn)    310 mg/kg

// next item, MTD at 17 days requested
Problem: Which MTD at 17 days value belongs to CC(NC(=O)C(NC(=O)[C@H](O)[C@H](O)[C@@H](O[C@@H]1O[C@H](CO)[C@H](O)[C@H](O)[C@H]1O)[C@H](O)CO)C(C)O)C(=O)NC(CC(N)=O)C(=O)Nc1ccc(COC(=O)N(C)CCNC(=O)c2cc(Oc3ccc(NC(=O)Nc4ccc(Cl)c(C(F)(F)F)c4)c(F)c3)ccn2)cc1 (stereo partly drawn) ?
Solution: 310 mg/kg

###

System: CT26 tumor cells
assay-text: CT26 immunotherapy model (Example 15)
Type: in vivo, mice
recorded-conditions: 10 in each group
Experimental: 1) CT26 tumor cells were purchased from ATCC, and the cells were cultured using a 10% fetal bovine serum DMEM medium at 37° C., 5% CO2. The cells were passaged every 3 days and the cells were used within 15 generations. 2) Tumor production: 10^6 live CT26 tumor cells were injected subcutaneously into the back of tumor-immunized […], and treatment was started when the tumor grew to about 0.3-0.4 cm. The tumor size (mm^3) of the mice was recorded and compared with the solvent control group. […]
// returns Condition not met unless Number of cures is strictly below 7, in which case Condition met

Solved entries:
1. CC(NC(=O)C(NC(=O)[C@H](O)[C@H](O)[C@@H](O[C@@H]1O[C@H](CO)[C@H](O)[C@H](O)[C@H]1O)[C@H](O)CO)C(C)O)C(=O)NC(CC(N)=O)C(=O)Nc1ccc(COC(=O)N(C)CCNC(=O)c2cc(Oc3ccc(NC(=O)Nc4ccc(Cl)c(C(F)(F)F)c4)cc3)ccn2)cc1 (stereo partly shown) [Compound S13, Lacto-TAN-PABC-compound a]    Condition not met
2. CC(NC(=O)C(C)NC(=O)[C@H](O)[C@H](O)[C@@H](O[C@@H]1O[C@H](CO)[C@H](O)[C@H](O)[C@H]1O)[C@H](O)CO)C(=O)NC(CC(N)=O)C(=O)Nc1ccc(COC(=O)N(C)CCNC(=O)c2cc(Oc3ccc(NC(=O)Nc4ccc(Cl)c(C(F)(F)F)c4)cc3)ccn2)cc1 (stereo partly shown) [Compound S1, Lacto-AAN-PABC-compound a]    Condition met
3. COc1cccc2c1C(=O)c1c(O)c3c(c(O)c1C2=O)C[C@](O)(C(=O)CO)CC3OC1C[C@H](NC(=O)OCc2ccc(NC(=O)C(CC(N)=O)NC(=O)C(C)NC(=O)C(C)NC(=O)[C@H](O)[C@H](O)[C@@H](O[C@@H]3O[C@H](CO)[C@H](O)[C@H](O)[C@H]3O)[C@H](O)CO)cc2)[C@H](O)[C@H](C)O1 (stereo partly shown) [Compound S3, Lacto-AAN-PABC-Adriamycin]    Condition not met
4. CC(NC(=O)C(C)NC(=O)[C@H](O)[C@H](O)[C@@H](O[C@@H]1O[C@H](CO)[C@H](O)[C@H](O)[C@H]1O)[C@H](O)CO)C(=O)NC(CC(N)=O)C(=O)Nc1ccc(COC(=O)N(C)CCNC(=O)c2cc(Oc3ccc(NC(=O)Nc4ccc(Cl)c(C(F)(F)F)c4)c(F)c3)ccn2)cc1 (stereo partly shown) [Compound S2, Lacto-AAN-PABC-Compound b]    Condition met
5. C[C@H](N=C[C@H](O)[C@@H](O)[C@H](O)[C@H](O)CO)C(=O)N[C@@H](C)C(=O)N[C@@H](CC(N)=O)C(=O)Nc1ccc(COC(=O)N(C)CCNC(=O)c2cc(Oc3ccc(NC(=O)Nc4ccc(Cl)c(C(F)(F)F)c4)cc3)ccn2)cc1 [Compound C4, Glucose-AAN-PABC-Compound a, reference compound]    Condition met

Next, consider the following compound.
Problem: Hello, I'm reviewing records and need to know if Number of cures of COc1cccc2c1C(=O)c1c(O)c3c(c(O)c1C2=O)C[C@@](O)(C(=O)CO)C[C@@H]3O[C@H]1C[C@H](N)[C@H](O)[C@H](C)O1 [Adriamycin, reference compound] is below 7. Could you check?
Solution: Condition met

###

System: CT26 tumor cells
assay-text: CT26 treatment model (Example 17)
Assay type: in vivo, mice
recorded-conditions: CT26 model as in Example 15
Give measured Tumor inhibition rate/% (at week 7) for each item. Keep answers brief.
Numbers only, in %.

1. CC(NC(=O)C(NC(=O)[C@H](O)[C@H](O)[C@@H](O[C@@H]1O[C@H](CO)[C@H](O)[C@H](O)[C@H]1O)[C@H](O)CO)C(C)C)C(=O)NC(CC(N)=O)C(=O)Nc1ccc(COC(=O)N2CC(C)(C)c3ccc(NC(=O)c4cccnc4NCc4ccncc4)cc32)cc1 (stereo partly drawn) [Compound S12]    55.5
2. CC(NC(=O)C(C)NC(=O)[C@H](O)[C@H](O)[C@@H](O[C@@H]1O[C@H](CO)[C@H](O)[C@H](O)[C@H]1O)[C@H](O)CO)C(=O)NC(CC(N)=O)C(=O)Nc1ccc(COC(=O)Nc2nccc(-c3sc(C(C)(C)C)nc3-c3cccc(NS(=O)(=O)c4c(F)cccc4F)c3F)n2)cc1 (stereo partly drawn) [Compound S4]    58.9

// next item, Tumor inhibition rate/% (at week 7) requested
Problem: Test system CT26 tumor cells; read-out Tumor inhibition rate/% (at week 7); what value for CC(NC(=O)C(NC(=O)[C@H](O)[C@H](O)[C@@H](O[C@@H]1O[C@H](CO)[C@H](O)[C@H](O)[C@H]1O)[C@H](O)CO)C(C)O)C(=O)NC(CC(N)=O)C(=O)Nc1ccc(COC(=O)Nc2c(-c3nc4ccc(N5CCN(C)CC5)cc4[nH]3)c(=O)[nH]c3cccc(F)c23)cc1 (stereo partly drawn) [Compound S17] ?
Solution: 70.9

###

System: BALB/C mouse
assay-text: MTD (maximum tolerated dose) acute toxicity in mice
Type: in vivo
recorded-conditions: intravenous, 10 mice per group
Residues, ends and D or L forms follow the SMILES beside them. *: point of attachment. Doxorubicin(3'-N) = COc1cccc2c1C(=O)c1c(O)c3c(c(O)c1C2=O)C[C@@](O)(C(=O)CO)C[C@@H]3O[C@H]1C[C@H](N*)[C@H](O)[C@H](C)O1; X1 = CN(CCNC(=O)c1cc(Oc2ccc(NC(=O)Nc3ccc(Cl)c(C(F)(F)F)c3)cc2)ccn1)*; Hexanoyl(6-maleimido) = O=C1C=CC(=O)N1CCCCCC(=O)*
Give measured Number of deaths for each item. Keep answers brief.
Give bare numbers.

Please review the following examples before continuing.
1) CC(NC(=O)C(NC(=O)[C@H](O)[C@H](O)[C@@H](O[C@@H]1O[C@H](CO)[C@H](O)[C@H](O)[C@H]1O)[C@H](O)CO)C(C)C)C(=O)NC(CC(N)=O)C(=O)Nc1ccc(COC(=O)Nc2nccc(-c3sc(C(C)(C)C)nc3-c3cccc(NS(=O)(=O)c4c(F)cccc4F)c3F)n2)cc1 (stereo partly drawn)    1
2) CC(NC(=O)C(C)NC(=O)[C@H](O)[C@H](O)[C@@H](O[C@@H]1O[C@H](CO)[C@H](O)[C@H](O)[C@H]1O)[C@H](O)CO)C(=O)NC(CC(N)=O)C(=O)Nc1ccc(COC(=O)N(C)CCNC(=O)c2cc(Oc3ccc(NC(=O)Nc4ccc(Cl)c(C(F)(F)F)c4)c(F)c3)ccn2)cc1 (stereo partly drawn)    2
3) C[C@H](N)C(=O)N[C@@H](C)C(=O)N[C@@H](CC(N)=O)C(=O)Nc1ccc(COC(=O)N(C)CCNC(=O)c2cc(Oc3ccc(NC(=O)Nc4ccc(Cl)c(C(F)(F)F)c4)cc3)ccn2)cc1 [Compound C2, AAN-PABC-Compound a, reference compound]    2
4) CC(C)C[C@H](NC(=O)[C@H](CC(N)=O)NC(=O)[C@H](C)NC(=O)[C@H](C)N)C(=O)N(C)CCNC(=O)c1cc(Oc2ccc(NC(=O)Nc3ccc(Cl)c(C(F)(F)F)c3)cc2)ccn1 [Compound C1, AANL-Compound a, reference compound] (H-AANL-X1)    1

Each compound below has a recorded value; state its Number of deaths.
1. COc1cccc2c1C(=O)c1c(O)c3c(c(O)c1C2=O)C[C@](O)(C(=O)CO)CC3OC1C[C@H](NC(=O)OCc2ccc(NC(=O)C(CC(N)=O)NC(=O)C(C)NC(=O)C(C)NC(=O)[C@H](O)[C@H](O)[C@@H](O[C@@H]3O[C@H](CO)[C@H](O)[C@H](O)[C@H]3O)[C@H](O)CO)cc2)[C@H](O)[C@H](C)O1 (stereo partly drawn)
2. CC(NC(=O)C(C)NC(=O)[C@H](O)[C@H](O)[C@@H](O[C@@H]1O[C@H](CO)[C@H](O)[C@H](O)[C@H]1O)[C@H](O)CO)C(=O)NC(CC(N)=O)C(=O)Nc1ccc(COC(=O)N(C)CCNC(=O)c2cc(Oc3ccc(NC(=O)Nc4ccc(Cl)c(C(F)(F)F)c4)cc3)ccn2)cc1 (stereo partly drawn)
3. COc1cccc2c1C(=O)c1c(O)c3c(c(O)c1C2=O)C[C@@](O)(C(=O)CO)C[C@@H]3O[C@H]1C[C@H](N)[C@H](O)[C@H](C)O1 [Adriamycin, reference compound]
4. CC(NC(=O)C(NC(=O)[C@H](O)[C@H](O)[C@@H](O[C@@H]1O[C@H](CO)[C@H](O)[C@H](O)[C@H]1O)[C@H](O)CO)C(C)O)C(=O)NC(CC(N)=O)C(=O)Nc1ccc(COC(=O)Nc2c(-c3nc4ccc(N5CCN(C)CC5)cc4[nH]3)c(=O)[nH]c3cccc(F)c23)cc1 (stereo partly drawn)
5. COc1cccc2c1C(=O)c1c(O)c3c(c(O)c1C2=O)C[C@@](O)(C(=O)CO)C[C@@H]3O[C@H]1C[C@H](NC(=O)[C@H](CC(C)C)NC(=O)[C@H](CC(N)=O)NC(=O)[C@H](C)NC(=O)[C@H](C)NC(=O)CCCCCN2C(=O)C=CC2=O)[C@H](O)[C@H](C)O1 [Compound C11, EMC-AANL-Adriamycin, reference compound] ({Hexanoyl(6-maleimido)}-AANL-{Doxorubicin(3'-N)})

Solution:
1: 1; 2: 1; 3: 3; 4: 1; 5: 2
